The origin of these recorded values is ChEMBL document CHEMBL1153928.

Provide the recorded pIC50 for the entries that follow.
biological target: A disintegrin and metalloproteinase with thrombospondin motifs 5 (Homo sapiens); assay: Inhibition of recombinant aggrecanase 2
One number for each entry, as −log10 of the molar value.

Here's what some known entries look like.
Input `O=C(O)[C@@]1(N(CCn2ccnn2)S(=O)(=O)c2ccc(-c3ccc(Cl)cc3)cc2)C[C@H]1c1ccccc1` , output reported pIC50.
6.57

Quickly give me recorded pIC50 for `O=C(O)[C@@H](Cc1ccccc1)N(CCc1ccccc1)S(=O)(=O)c1ccc(-c2ccc(Cl)cc2)cc1`
5.14

Hi team, please reply with pIC50 for each item in this list.
1. O=C1CCCN1CCN([C@]1(C(=O)O)C[C@H]1c1ccccc1)S(=O)(=O)c1ccc(-c2ccc(Cl)cc2)nc1
2. O=C1OCCN1CCN([C@]1(C(=O)O)C[C@H]1c1ccccc1)S(=O)(=O)c1ccc(-c2ccc(Cl)cc2)cc1
3. COC(=O)c1cn(CCN([C@]2(C(=O)O)C[C@H]2c2ccccc2)S(=O)(=O)c2ccc(-c3ccc(Cl)cc3)cc2)cn1
4. COc1cccn(CCN([C@]2(C(=O)O)C[C@H]2c2ccccc2)S(=O)(=O)c2ccc(-c3ccc(Cl)cc3)cc2)c1=O
5. O=C1OCCCN1CCN([C@]1(C(=O)O)C[C@H]1c1ccccc1)S(=O)(=O)c1ccc(-c2ccc(Cl)cc2)cc1

1. 5.96
2. 6.66
3. 7.14
4. 7.11
5. 6.74

====

Molecular target: UniProtKB Q9UNA0
Sequence (Q9UNA0 whole entry): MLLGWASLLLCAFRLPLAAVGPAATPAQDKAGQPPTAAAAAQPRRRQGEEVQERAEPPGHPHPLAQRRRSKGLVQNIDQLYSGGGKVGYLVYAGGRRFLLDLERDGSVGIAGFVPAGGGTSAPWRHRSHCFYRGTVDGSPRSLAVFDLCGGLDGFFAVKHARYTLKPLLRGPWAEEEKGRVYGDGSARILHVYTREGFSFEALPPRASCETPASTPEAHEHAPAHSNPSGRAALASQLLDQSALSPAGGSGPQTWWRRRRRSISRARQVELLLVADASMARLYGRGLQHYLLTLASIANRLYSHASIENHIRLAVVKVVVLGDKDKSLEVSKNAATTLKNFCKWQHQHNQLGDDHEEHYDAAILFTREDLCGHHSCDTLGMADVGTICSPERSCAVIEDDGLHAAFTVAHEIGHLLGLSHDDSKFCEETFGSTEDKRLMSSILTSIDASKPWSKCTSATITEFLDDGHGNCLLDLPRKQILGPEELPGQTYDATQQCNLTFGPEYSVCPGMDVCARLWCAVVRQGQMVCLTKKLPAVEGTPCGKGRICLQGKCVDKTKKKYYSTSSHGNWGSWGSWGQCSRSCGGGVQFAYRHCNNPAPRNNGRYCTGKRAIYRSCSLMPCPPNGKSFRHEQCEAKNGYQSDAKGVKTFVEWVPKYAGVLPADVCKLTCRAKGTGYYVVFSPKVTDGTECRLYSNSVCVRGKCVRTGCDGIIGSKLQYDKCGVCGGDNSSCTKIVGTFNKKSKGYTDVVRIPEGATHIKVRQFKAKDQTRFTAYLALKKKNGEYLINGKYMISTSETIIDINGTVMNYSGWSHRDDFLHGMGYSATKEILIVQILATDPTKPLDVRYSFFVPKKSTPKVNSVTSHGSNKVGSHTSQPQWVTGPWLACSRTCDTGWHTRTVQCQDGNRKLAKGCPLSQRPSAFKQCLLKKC
Experiment: Inhibition of recombinant aggrecanase 2
Hi there, I'd appreciate the recorded pIC50 for every entry that follows.
One number for each entry, as −log10 of the molar value.

Consider the worked cases shown below.
Provide only the value of recorded pIC50 for `COC(=O)c1cncn1CCN([C@]1(C(=O)O)C[C@H]1c1ccccc1)S(=O)(=O)c1ccc(-c2ccc(Cl)cc2)cc1`
6.64

Note down pIC50 recorded for `O=C(O)[C@@]1(N(CCc2cccnc2)S(=O)(=O)c2ccc(-c3ccc(Cl)cc3)cc2)C[C@H]1c1ccccc1`
6.54

Given the compound `O=C(O)[C@@H](Cc1ccccc1)NS(=O)(=O)c1ccc(-c2ccc(Cl)cc2)cc1` , write its reported pIC50.
5.49

Pending compound:
Quick one: give measured pIC50 for `O=C(O)[C@@]1(N(CCn2cncn2)S(=O)(=O)c2ccc(-c3ccc(Cl)cc3)cc2)C[C@H]1c1ccccc1`
6.74
